Assay: activity coefficient (dimensionless); of the first substance listed, at infinite dilution; xn = mol fraction of the nth substance listed
Details: 368.15 K; 100 kPa; Liquid; Chromatography; x1 = 0
# activity coefficient annotations
Please reply with the number alone, leaving off any unit.

Illustrative cases are given below, each with its answer.
{"columns": ["MOLECULE", "MEASUREMENT"],
 "data": [
  ["C=CCCCC [hex-1-ene] + CCCC[n+]1ccc(C#N)cc1.O=S(=O)([N-]S(=O)(=O)C(F)(F)F)C(F)(F)F", 12.5],
  ["CCCCCCCCC [nonane] + CCCC[n+]1ccc(C#N)cc1.O=S(=O)([N-]S(=O)(=O)C(F)(F)F)C(F)(F)F", 61.5],
  ["C=C(C)c1ccccc1 [(1-methylethenyl)benzene] + CCCC[n+]1ccc(C#N)cc1.O=S(=O)([N-]S(=O)(=O)C(F)(F)F)C(F)(F)F", 2.86]
]}

Query: Answer with the recorded activity coefficient for the molecule listed here: Cc1ccc(C)cc1 [1,4-dimethylbenzene] + CCCC[n+]1ccc(C#N)cc1.O=S(=O)([N-]S(=O)(=O)C(F)(F)F)C(F)(F)F
Reply: 2.89
